Tested on: MCF7 breast
TEST SUMMARY: NCI-60 one-dose screen, 48 h (100 = growth as untreated, 0 = no growth, -100 = all killed)
TEST SETTINGS: 10 µM unless noted
About 83,000 compounds went through this panel and 20% of them were active in at least one assay; those are over-represented in the sample as a whole.
Label N if growth falls below 90%; label Y in every other case.

CHEMICAL SMILES	TARGET SYSTEM	GROUP
COC(=O)[C@@H](Cc1c[nH]c2ccccc12)NC(=O)[C@H](Cc1ccccc1)NCc1ccncc1	MCF7 breast	Y
C#CCOc1cc(/C=N/Nc2nc(-c3ccc(OC)cc3)cs2)ccc1O	MCF7 breast	N
C=C(C)[C@@H]1CCC[C@]2(C(=O)OC)CC[C@]3(C)[C@@H](CC[C@@H]4[C@@]5(C)CCCNC(C)(C)[C@@H]5CC[C@]43C)[C@@H]12	MCF7 breast	N
COc1ccc(-c2nc(SCCC(C)C)nc(N/N=C(/C)c3ccc(N)cc3)c2C#N)cc1	MCF7 breast	N
CCCCCCCCNc1ncnc2c1ncn2Cc1nnc2c3ccccc3c(Cl)nn12	MCF7 breast	N
